Values from a melting point compilation (Tetko et al.; mined from patent text by program, amines drawn as free bases though some values may be those of a salt)

resultType: melting point

Known melting point results, listed for orientation:
Q: // melting point lookup, key: `c1ccc2c(c1)c(-c1cc3nccnc3[nH]1)cn2CCCN1CCOCC1`
A: 180 to 185 °C

Q: // melting point lookup, key: `COC(=O)c1ccc(NC(C)=O)c(CO)c1`
A: 60 °C

Q: // melting point lookup, key: `COC(=O)c1c(C(=O)OC)c(-c2ccc(Cl)cc2)n2c1Cc1ccccc1C2`
A: 164 to 166 °C

Q: // melting point lookup, key: `O=C(O)c1c2nc3ccccc3c-2[nH]c2ccc(F)cc12`
A: > 243 °C

Q: // melting point lookup, key: `COC(=O)c1ccc2c(=O)n(CC(C)C)c(CNC(=O)OC(C)(C)C)c(-c3ccc(Cl)cc3)c2c1`
A: 205 to 207 °C

Others:
Q: // melting point lookup, key: `O=C1C=C(O)C(=O)c2cc(F)ccc21`
A: 206 to 210 °C

Q: // melting point lookup, key: O=C(c1ccc(Cl)cc1)N1N=C(C(F)(F)F)CC1(O)c1cc(F)ccc1F (stereo not given)
A: 110 to 113 °C

Q: // melting point lookup, key: `COC(=O)/C=C/c1nccs1`
A: 75 to 75.5 °C

Q: // melting point lookup, key: `COC(=O)c1cc(F)ccc1Nc1ccnc2cc(C(F)(F)F)ccc12`
A: 174 °C

Q: // melting point lookup, key: `COc1cc(I)c(F)cc1Cl`
A: 90 to 94 °C

Q: // melting point lookup, key: `COc1ccc(-c2ccncc2)c(C)n1`
A: 85 to 90 °C

Q: // melting point lookup, key: `COc1ccc(Cl)c(Oc2c(CO)nc(N3CCOCC3)nc2NS(=O)(=O)c2ccc(C(C)(C)C)cc2)c1`
A: 103 °C

Q: // melting point lookup, key: `FC(F)(F)CNC(=S)NCC(F)(F)F`
A: 152 to 153 °C

Q: // melting point lookup, key: `c1ccc2cc(Cn3ccnc3)ccc2c1`
A: 87 to 88 °C

Q: // melting point lookup, key: `CC(=O)Nc1ccc(N2CCC(=O)CC2)cc1`
A: 158 to 159 °C

Q: // melting point lookup, key: `C[C@@H](CN1CCc2ccc3c(c21)CCO3)NC(=O)OC(C)(C)C`
A: 141 to 142 °C

Q: // melting point lookup, key: `CCOC(=O)c1[nH]c2cc(F)c(Cl)cc2c1Sc1cc(C)cc(C)c1`
A: 170 to 173 °C

Q: // melting point lookup, key: `CCn1c(=O)c2c(nc(/C=C/c3ccc(-c4ccccc4)cc3)n2C)n(CC)c1=O`
A: 200 to 201 °C

Q: // melting point lookup, key: `CC(=NO)C(=O)c1ccc(NS(C)(=O)=O)c(Sc2ccc(F)cc2F)c1`
A: 140 to 143 °C

Q: // melting point lookup, key: `CC1(C)CCCC(C)(C)N1Oc1ccc(C(F)(F)F)cc1[N+](=O)[O-]`
A: 54 to 55 °C

Q: // melting point lookup, key: CCC(Oc1c(C)cc(C)cc1C)C(=O)OC1CC(O)C=C2C=CC(C)C(CCC3CC(O)CC(=O)O3)C21 (mixture of isomers)
A: 134 to 136 °C

Q: // melting point lookup, key: CCC(c1ccc(Cl)nc1)N(Cc1ccc(C(=O)O)cc1)S(=O)(=O)c1ccc(Cl)cc1 (stereo not given)
A: 111 to 113 °C

Q: // melting point lookup, key: `CCOc1ccc(C(=O)CCC(=O)O)c(OCC)c1`
A: 139 to 141 °C

Q: // melting point lookup, key: `O=C(NC1CCCC1)c1cc2ccncc2[nH]1`
A: 220 to 224 °C

Q: // melting point lookup, key: CCOC(=O)c1cn2c3c(cc(F)cc3c1=O)C(=O)CC2C (stereo not given)
A: 262 to 265 °C

Q: // melting point lookup, key: `Clc1cc2nc(NCCCN3CCOCC3)c(-c3ccccn3)nc2cc1Cl`
A: 119 to 121 °C

Q: // melting point lookup, key: `Clc1nc(-c2nnc(Oc3ccccc3)o2)[nH]c1Cl`
A: 109 °C

Q: // melting point lookup, key: `CCCCCCN1N=C(c2ccc(F)cc2)c2cc(F)ccc2CS1(=O)=O`
A: 93 to 96 °C

Q: // melting point lookup, key: `COc1ccc(C(=C/C=C/C(=O)NCCCCc2cccnc2)c2ccc(OC)c(OC)c2)cc1OC`
A: 145 to 146 °C

Q: // melting point lookup, key: `CN1CCC(c2cccc3ccc(O)cc23)CC1`
A: 144 to 146 °C
